The entries below are paired with their reported GI50.
Test system: UACC-257
Assay: NCI tumour cell line growth inhibition, 48 h
Active and inactive are the calls of the source. No stated cut-off is given here; in the data, active = GI50 up to about 1.1 µM and inactive = higher.

# compound, GI50
rows = [
    ("O=C(/C=C/c1ccc(Cl)c(Cl)c1)C1CCC(Cl)CC1 (stereo not given)", "18.5 µM (inactive)"),
    ("O=C1OC(=O)C2C1C(c1ccccc1[N+](=O)[O-])C=C(c1ccco1)N2c1ccncc1 (stereo not given)", "2.08 µM (inactive)"),
    ("CN(C)CCN(/C(=N/c1ccccc1)N1CCCC1)c1ccccc1", "55.1 µM (inactive)"),
    ("CC(=O)c1ccc(NC(=O)C(=O)C(C(=O)c2ccc(Cl)c(Cl)c2)C2OC(=O)c3ccccc32)cc1 (stereo not given)", "23.4 µM (inactive)"),
    ("CCOC(=O)CNC(=O)N(CC)C12CC3CC(CC(C3)C1)C2", "122 µM (inactive)"),
]

-- ask I have this compound here, COc1ccc(/N=C(/SS/C(=N/c2ccc(OC)cc2)c2ccc([N+](=O)[O-])o2)c2ccc([N+](=O)[O-])o2)cc1 , and I need its recorded GI50.
-- reply 2.06 µM (inactive)

-- ask I have this compound here, O=C(O)c1cc(CCc2cc(O)ccc2O)ccc1O , and I need its recorded GI50.
-- reply > 100 µM (inactive)

-- ask I have this compound here, N#C/C(C(=O)Nc1ccccc1)=C(/N)N1CCOCC1 , and I need its recorded GI50.
-- reply > 100 µM (inactive)
